Quick reference: EC50 of the listed items.
# experiment: viability of PTEN-deleted HCT116 cells – cell-based, HCT116 PTEN knockout, dose response (AID 1047);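 also: HCT116 colon tumor cells with PTEN knocked out; cells exposed to compound for 60 hours before readout; potency for loss of cell viability measured by luminescence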
# Assay type: functional
The source made the active and inactive calls. No rule for the calls is given here.

molecule | EC50
COc1ccc(/C=C/C(=O)Oc2ccc(/C=N/NC(=O)c3ccccc3)cc2)cc1OC | 27.7 µM (active)
Cc1ccc(S(=O)(=O)c2nc(-c3ccc(F)cc3)oc2SCC(=O)NCC2CCCO2)cc1 (centres undefined) | 83.1 µM (active)
O=C(CN1CCN(c2ncc(C(F)(F)F)cc2Cl)CC1)N1CCN(c2ncc(C(F)(F)F)cc2Cl)CC1 | 48.4 µM (active)
c1cc2c(cc1C1CCCCC1)c1c3n2CCCNC3CCC1 (centres undefined) | 5.92 µM (active)

###

AC50 overview
# system.under.test: Microphthalmia-associated transcription factor (Homo sapiens, UniProt O75030)
# Sequence (O75030 whole entry): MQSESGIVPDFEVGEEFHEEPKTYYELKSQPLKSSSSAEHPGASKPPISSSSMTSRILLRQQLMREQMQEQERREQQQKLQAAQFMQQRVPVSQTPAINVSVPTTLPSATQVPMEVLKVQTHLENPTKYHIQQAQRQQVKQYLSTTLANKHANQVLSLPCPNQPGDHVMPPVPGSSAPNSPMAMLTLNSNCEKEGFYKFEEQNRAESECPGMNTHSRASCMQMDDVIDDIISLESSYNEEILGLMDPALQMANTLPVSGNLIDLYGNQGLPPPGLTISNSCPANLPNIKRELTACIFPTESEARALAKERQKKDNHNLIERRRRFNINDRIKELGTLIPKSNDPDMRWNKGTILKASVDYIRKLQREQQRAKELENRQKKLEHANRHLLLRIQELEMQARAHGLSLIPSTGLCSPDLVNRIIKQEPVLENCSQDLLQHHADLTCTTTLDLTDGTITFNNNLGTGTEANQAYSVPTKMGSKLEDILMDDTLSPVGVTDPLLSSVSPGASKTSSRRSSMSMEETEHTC
# experiment: reducers of TRPM1 reporter luminescence, concentration series – cell-based, SK-MEL-5, cherry-picked, set 3, MITF inhibitor project, dose response (AID 493073);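 also: SK-MEL-5 melanoma cells with luciferase driven by the MITF target TRPM1 promoter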
# Format: functional
Activity calls are given as the source filed them. The rule behind the calls is not given here.

compound.structure.string | AC50
O=C(/C=C\Nc1ccc2c(c1)OCO2)c1ccccn1 | 2.08 µM (active)
CC(C)c1ccc(/C=N/Nc2ccc(C(=O)O)cc2)cc1 | 3.53 µM (active)
C=CCn1c(C)cc(C2=NN=C(NCC)SC2)c1C | 0.056 µM (active)
CC(=O)Nc1ccc(Nc2c3ccccc3nc3ccccc23)cc1 | 4.9 µM (active)
O=[N+]([O-])/C=C\c1ccc(N2CCOCC2)cc1 | 13.6 µM (active)

###

# system.under.test: Voltage-dependent T-type calcium channel subunit alpha-1H (Homo sapiens);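 also: channel activity triggered by adding a high calcium stimulation buffer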
# Sequence (O95180 whole entry): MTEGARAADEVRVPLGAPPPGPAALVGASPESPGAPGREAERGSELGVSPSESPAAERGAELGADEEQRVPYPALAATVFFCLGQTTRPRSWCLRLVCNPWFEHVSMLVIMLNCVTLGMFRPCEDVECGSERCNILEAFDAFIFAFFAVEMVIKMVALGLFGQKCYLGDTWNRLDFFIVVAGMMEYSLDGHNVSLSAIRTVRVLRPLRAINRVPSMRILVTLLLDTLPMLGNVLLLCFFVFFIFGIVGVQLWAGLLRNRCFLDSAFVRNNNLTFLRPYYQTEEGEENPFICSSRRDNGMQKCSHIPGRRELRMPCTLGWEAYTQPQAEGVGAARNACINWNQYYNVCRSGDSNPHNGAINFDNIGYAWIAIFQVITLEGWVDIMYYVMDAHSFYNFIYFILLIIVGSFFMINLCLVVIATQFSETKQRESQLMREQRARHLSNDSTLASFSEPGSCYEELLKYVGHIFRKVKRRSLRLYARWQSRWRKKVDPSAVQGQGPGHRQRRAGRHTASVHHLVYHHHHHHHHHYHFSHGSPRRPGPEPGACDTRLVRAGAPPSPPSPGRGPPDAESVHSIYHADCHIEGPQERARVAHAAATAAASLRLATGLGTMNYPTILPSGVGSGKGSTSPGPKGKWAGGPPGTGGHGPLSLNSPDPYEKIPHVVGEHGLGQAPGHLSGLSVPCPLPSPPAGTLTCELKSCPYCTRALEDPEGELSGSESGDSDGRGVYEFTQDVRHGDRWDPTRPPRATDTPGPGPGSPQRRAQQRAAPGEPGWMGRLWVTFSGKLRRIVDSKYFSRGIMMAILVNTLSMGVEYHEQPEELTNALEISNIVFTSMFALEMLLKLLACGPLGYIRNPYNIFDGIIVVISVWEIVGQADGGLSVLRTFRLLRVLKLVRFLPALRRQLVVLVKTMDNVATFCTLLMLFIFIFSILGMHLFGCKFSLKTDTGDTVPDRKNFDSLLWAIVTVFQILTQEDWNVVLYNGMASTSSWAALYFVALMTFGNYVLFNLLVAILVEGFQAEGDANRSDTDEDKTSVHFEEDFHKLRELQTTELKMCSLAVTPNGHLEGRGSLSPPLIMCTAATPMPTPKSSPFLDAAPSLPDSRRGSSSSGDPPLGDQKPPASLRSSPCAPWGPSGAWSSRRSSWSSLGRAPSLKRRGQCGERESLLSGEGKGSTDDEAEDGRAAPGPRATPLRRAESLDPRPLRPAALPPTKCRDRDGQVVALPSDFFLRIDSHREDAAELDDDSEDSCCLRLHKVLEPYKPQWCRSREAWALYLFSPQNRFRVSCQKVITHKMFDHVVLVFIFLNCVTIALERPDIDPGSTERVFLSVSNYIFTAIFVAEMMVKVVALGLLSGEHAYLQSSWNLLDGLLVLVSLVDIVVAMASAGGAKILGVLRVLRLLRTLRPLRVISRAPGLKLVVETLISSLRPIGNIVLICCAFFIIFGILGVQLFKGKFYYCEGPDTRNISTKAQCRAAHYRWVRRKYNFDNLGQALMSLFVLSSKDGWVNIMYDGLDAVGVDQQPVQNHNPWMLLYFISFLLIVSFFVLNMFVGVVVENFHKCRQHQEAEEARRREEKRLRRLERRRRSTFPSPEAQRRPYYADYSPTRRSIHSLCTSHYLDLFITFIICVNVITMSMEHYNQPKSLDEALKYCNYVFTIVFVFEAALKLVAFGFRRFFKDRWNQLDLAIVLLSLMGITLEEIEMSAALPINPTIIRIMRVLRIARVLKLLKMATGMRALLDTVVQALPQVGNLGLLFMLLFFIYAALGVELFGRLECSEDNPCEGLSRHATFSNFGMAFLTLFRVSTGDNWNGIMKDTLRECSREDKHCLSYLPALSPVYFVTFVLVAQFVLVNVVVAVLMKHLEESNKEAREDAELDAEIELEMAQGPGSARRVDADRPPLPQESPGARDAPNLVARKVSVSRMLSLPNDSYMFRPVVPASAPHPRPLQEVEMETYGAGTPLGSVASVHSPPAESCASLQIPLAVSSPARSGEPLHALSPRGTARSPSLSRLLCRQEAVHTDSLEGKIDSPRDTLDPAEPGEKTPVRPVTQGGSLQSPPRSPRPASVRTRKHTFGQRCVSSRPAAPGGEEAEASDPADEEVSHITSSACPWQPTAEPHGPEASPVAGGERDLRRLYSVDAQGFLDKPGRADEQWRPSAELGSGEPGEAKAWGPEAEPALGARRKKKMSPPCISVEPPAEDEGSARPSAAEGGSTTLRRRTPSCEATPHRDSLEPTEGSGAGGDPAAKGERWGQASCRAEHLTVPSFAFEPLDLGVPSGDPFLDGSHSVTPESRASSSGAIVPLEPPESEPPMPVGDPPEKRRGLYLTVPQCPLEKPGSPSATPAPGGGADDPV
# Type: functional
Active and inactive are the calls of the source.
Parameter: EC50. Scope: all listed entries.
assay.readout: EC50

compound | system.under.test | value
Cc1ccc(C)c(Cn2c(CO)nc3ccccc32)c1 | Voltage-dependent T-type calcium channel subunit alpha-1H (Homo sapiens) | 2.68 µM (active)
COc1cccc(C(c2nnnn2CCc2ccccc2)N2CCN(c3ccccc3)CC2)c1OC (stereo unspecified) | Voltage-dependent T-type calcium channel subunit alpha-1H (Homo sapiens) | 0.986 µM (active)
Cc1cc(Cl)c(S(=O)(=O)Nc2ccc3c(c2)OCO3)cc1OCC(=O)NC1CCCCC1 | Voltage-dependent T-type calcium channel subunit alpha-1H (Homo sapiens) | 2.06 µM (active)
Cc1cc(NC(=O)CSc2c(C)[nH]c3ccccc23)no1 | Voltage-dependent T-type calcium channel subunit alpha-1H (Homo sapiens) | 5.22 µM (active)
Cc1ccc2[nH]c(SCc3ccc([N+](=O)[O-])cc3)nc2c1 | Voltage-dependent T-type calcium channel subunit alpha-1H (Homo sapiens) | 4.41 µM (active)
O=C(CN1CCN(c2ncc(C(F)(F)F)cc2Cl)CC1)N1CCN(c2ncc(C(F)(F)F)cc2Cl)CC1 | Voltage-dependent T-type calcium channel subunit alpha-1H (Homo sapiens) | 8.68 µM (active)

Just for reference, ChEMBL document CHEMBL1201862 is where these values come from.
